From: patent US7196110B2

Target or test system: PDGF-receptor beta enzyme comprising the tyrosine kinase domain (Homo sapiens)
Construct: from amino acid 545 to 1106 of GenBank Access NO: AAA36427
Test protocol: Inhibition of PDGF-receptor kinase activity (cell-free, PLC1 peptide, 33P Flashplate)
Type: biochemical
Condition: PDGF-R kinase activity; compound at 10 uM; read-out: Percent Inhibition @ 10 uM
Protocol: PDGF-R kinase activity was assayed by its ability to phosphorylate one of its target proteins, PLCγ, in a cell-free system, in particular, a PLC1 peptide comprising the tyrosine residue where the phosphorylation occurs was used for the assay. […] In order to test the potency of inhibition of present compounds, an IC50 for an individual compound was measured using the above procedure. […]
// values below are reported inhibition at 10 µM
The answer is to be given in %; state only the numeric part.

Fill in the recorded inhibition at 10 µM for this molecule, with PDGF-receptor beta enzyme comprising the tyrosine kinase domain (Homo sapiens) as test system: COc1cc2c(cc1OC)-c1n[nH]c(NCc3ccccc3F)c1C2 61

Fill in the recorded inhibition at 10 µM for this molecule, with PDGF-receptor beta enzyme comprising the tyrosine kinase domain (Homo sapiens) as test system: COc1cc2c(cc1OC)-c1n[nH]c(Nc3cccc(CO)c3)c1C2 85

Fill in the recorded inhibition at 10 µM for this molecule, with PDGF-receptor beta enzyme comprising the tyrosine kinase domain (Homo sapiens) as test system: Fc1cccc(Nc2[nH]nc3c2Cc2ccccc2-3)c1 100

Fill in the recorded inhibition at 10 µM for this molecule, with PDGF-receptor beta enzyme comprising the tyrosine kinase domain (Homo sapiens) as test system: Cc1cccc2c1Cc1c-2n[nH]c1Nc1ccccc1 87

Fill in the recorded inhibition at 10 µM for this molecule, with PDGF-receptor beta enzyme comprising the tyrosine kinase domain (Homo sapiens) as test system: COc1ccc(Nc2[nH]nc3c2Cc2cc(OC)c(OC)cc2-3)cc1 75

Fill in the recorded inhibition at 10 µM for this molecule, with PDGF-receptor beta enzyme comprising the tyrosine kinase domain (Homo sapiens) as test system: COc1cc2c(cc1OCC(O)CN1CCCC1)Cc1c-2n[nH]c1NCc1c(Cl)cccc1Cl (stereo not drawn) 99

Fill in the recorded inhibition at 10 µM for this molecule, with PDGF-receptor beta enzyme comprising the tyrosine kinase domain (Homo sapiens) as test system: COc1cc2c(cc1OC)-c1c(c(Nc3cccc(F)c3)nn1C(=O)CCC(N)=O)C2 90

Fill in the recorded inhibition at 10 µM for this molecule, with PDGF-receptor beta enzyme comprising the tyrosine kinase domain (Homo sapiens) as test system: COc1cc2c(cc1OC)-c1nn(COC(C)=O)c(Nc3cccc(F)c3)c1C2 97

Fill in the recorded inhibition at 10 µM for this molecule, with PDGF-receptor beta enzyme comprising the tyrosine kinase domain (Homo sapiens) as test system: COc1cc2c(cc1OC)-c1n[nH]c(Nc3ccc(Cl)cc3Cl)c1C2 79

Fill in the recorded inhibition at 10 µM for this molecule, with PDGF-receptor beta enzyme comprising the tyrosine kinase domain (Homo sapiens) as test system: COc1cc2c(cc1OC)-c1n[nH]c(Nc3ccc(F)c(C(F)(F)F)c3)c1C2 84

Fill in the recorded inhibition at 10 µM for this molecule, with PDGF-receptor beta enzyme comprising the tyrosine kinase domain (Homo sapiens) as test system: CN(C)CCCOc1cccc2c1Cc1c-2n[nH]c1Nc1cccc(F)c1 97

Fill in the recorded inhibition at 10 µM for this molecule, with PDGF-receptor beta enzyme comprising the tyrosine kinase domain (Homo sapiens) as test system: CCc1cccc(Nc2[nH]nc3c2Cc2cc(OC)c(OC)cc2-3)c1 99

Fill in the recorded inhibition at 10 µM for this molecule, with PDGF-receptor beta enzyme comprising the tyrosine kinase domain (Homo sapiens) as test system: COc1cccc2c1Cc1c-2n[nH]c1Nc1cccc(F)c1 83

###

Target or test system: PDGF-receptor beta enzyme comprising the tyrosine kinase domain (Homo sapiens, UniProt P09619)
Construct: from amino acid 545 to 1106 of GenBank Access NO: AAA36427
Sequence (P09619 545-1106): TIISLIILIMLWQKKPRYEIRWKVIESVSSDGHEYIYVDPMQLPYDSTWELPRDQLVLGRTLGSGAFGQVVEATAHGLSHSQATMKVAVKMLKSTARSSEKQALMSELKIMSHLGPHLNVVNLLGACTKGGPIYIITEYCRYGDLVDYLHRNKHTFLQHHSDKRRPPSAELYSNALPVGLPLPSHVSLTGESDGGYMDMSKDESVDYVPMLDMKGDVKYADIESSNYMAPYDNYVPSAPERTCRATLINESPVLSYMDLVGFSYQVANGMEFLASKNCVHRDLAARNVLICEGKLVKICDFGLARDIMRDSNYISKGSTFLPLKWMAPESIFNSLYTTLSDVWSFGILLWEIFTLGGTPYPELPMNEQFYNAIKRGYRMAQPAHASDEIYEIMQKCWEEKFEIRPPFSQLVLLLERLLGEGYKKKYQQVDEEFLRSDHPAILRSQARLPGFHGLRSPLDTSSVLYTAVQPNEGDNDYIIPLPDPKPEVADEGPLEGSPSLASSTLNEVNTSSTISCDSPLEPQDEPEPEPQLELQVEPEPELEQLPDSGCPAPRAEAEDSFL
Test protocol: Inhibition of PDGF-receptor kinase activity (cell-free, PLC1 peptide, 33P Flashplate)
Format: biochemical
Condition: PDGF-R kinase activity; compound at 10 uM; read-out: Percent Inhibition @ 10 uM
Would you mind labelling by inhibition at 10 µM? At or over 90% is true (1), under is false (0).

# example entries with known answers
CCOC(=O)Cn1nc2c(c1Nc1cccc(F)c1)Cc1cc(OC)c(OC)cc1-2 [Compound 510] : false (0)
OCCCOc1cc2c(cc1OCCCO)-c1n[nH]c(Nc3ccc(F)c(Cl)c3)c1C2 [Compound 389] : true (1)
COc1cc2c(cc1O)Cc1c-2n[nH]c1Nc1cccc(F)c1 [Compound 363] : false (0)
COc1cccc(Nc2[nH]nc3c2C(C)c2cc(OC(C)C)c(OC(C)C)cc2-3)c1 (centres unmarked) [Compound 355] : false (0)
Clc1cccc(Nc2[nH]nc3c2Cc2c(OCCCN4CCOCC4)cccc2-3)c1 [Compound 392] : false (0)

API: above_or_equal(metric=inhibition at 10 µM, cutoff=90%) for item COc1cc2c(cc1OC)-c1c(c(Nc3cccc(F)c3)nn1C(=O)c1ccc(Cl)cc1)C2 [Compound 494] false (0)

API: above_or_equal(metric=inhibition at 10 µM, cutoff=90%) for item COc1cc2c(cc1OCCCn1ccnc1)Cc1c-2n[nH]c1Nc1cccc(F)c1 [Compound 226] true (1)

API: above_or_equal(metric=inhibition at 10 µM, cutoff=90%) for item COc1ccc2c(c1)-c1n[nH]c(Nc3ccc(C(F)(F)F)cc3)c1C2 [Compound 178] true (1)

API: above_or_equal(metric=inhibition at 10 µM, cutoff=90%) for item COc1cc2c(cc1OC)-c1c(c(Nc3cccc(F)c3)nn1C(=O)NCCN(C)C)C2 [Compound 517] false (0)

###

Target or test system: PDGF-receptor beta enzyme comprising the tyrosine kinase domain (Homo sapiens, UniProt P09619)
Construct: from amino acid 545 to 1106 of GenBank Access NO: AAA36427
Test protocol: Inhibition of PDGF-receptor kinase activity (cell-free, PLC1 peptide, 33P Flashplate)
Assay type: biochemical
Condition: PDGF-R kinase activity; compound at 10 uM; read-out: Percent Inhibition @ 10 uM
Measurement kind: inhibition at 10 µM (%)
The answer is to be given in %; state only the numeric part.

Using the record for COCCCOc1ccc2c(c1)Cc1c-2n[nH]c1Nc1cccc(F)c1 , report its inhibition at 10 µM. 79.5

Using the record for COc1cccc(CNc2[nH]nc3c2Cc2cc(OC)c(OC)cc2-3)c1 , report its inhibition at 10 µM. 90

Using the record for Cc1ccc2c(c1)-c1n[nH]c(NCc3ccc(C)c(Cl)c3)c1C2 , report its inhibition at 10 µM. 17.5

Using the record for COc1ccc2c(c1)Cc1c-2n[nH]c1Nc1cc(F)ccc1F , report its inhibition at 10 µM. 91

Using the record for COCCOC(=O)n1nc(Nc2cccc(F)c2)c2c1-c1cc(OC)c(OC)cc1C2 , report its inhibition at 10 µM. 77.5

Using the record for COc1cc2c(cc1OC)-c1n[nH]c(NCc3cc(-c4ccccc4)on3)c1C2 , report its inhibition at 10 µM. 95

###

Target or test system: PDGF-receptor beta enzyme comprising the tyrosine kinase domain (Homo sapiens, UniProt P09619)
Construct: from amino acid 545 to 1106 of GenBank Access NO: AAA36427
Test protocol: Inhibition of PDGF-receptor kinase activity (cell-free, PLC1 peptide, 33P Flashplate)
Format: biochemical
Condition: PDGF-R kinase activity; read-out: IC50
Measurement kind: log10(IC50) (log10 of the value in nM)
Base-10 log of IC50, unit nM.

Clc1ccc2c(c1)Cc1c-2n[nH]c1Nc1ccccc1 [Compound 21] : 2.08
COc1ccc(Nc2[nH]nc3c2Cc2ccc(C)cc2-3)cc1 [Compound 183] : 2.74
c1ccc(Nc2[nH]nc3c2CCc2ccccc2-3)cc1 [Compound 93] : 3.01
COc1cc2c(cc1OC)-c1n[nH]c(Nc3c(OC)ccnc3OC)c1C2 [Compound 454] : 2.41
Fc1ccccc1CNc1[nH]nc2c1Cc1c(OCCCN3CCOCC3)cccc1-2 [Compound 416] : 3.08
CC(C)Oc1cc2c(cc1OC(C)C)C(C)c1c-2n[nH]c1Nc1cccnc1 (stereo not drawn) [Compound 352] : 2.88
CC(C)Oc1cc2c(cc1OC(C)C)-c1n[nH]c(Nc3ccc(F)c(Cl)c3)c1C2 [Compound 167] : 2.71
CCC(=O)n1nc(Nc2cccc(F)c2)c2c1-c1cc(OC)c(OC)cc1C2 [Compound 430] : 2.76

Using the record for Cc1cccc(Nc2[nH]nc3c2Cc2cc(F)ccc2-3)c1 [Compound 240] , report its log10(IC50). 0.30

Using the record for COc1cc2c(cc1OC)[C@@H](C)c1c-2n[nH]c1Nc1cccc(Br)c1 [Compound 553] , report its log10(IC50). 0.81

Using the record for Fc1ccc(Nc2[nH]nc3c2oc2ccccc23)cc1Cl [Compound 381] , report its log10(IC50). 1.74
